List of log10 of IC50 values.
# target_under_test: hOX1R (Homo sapiens, UniProt O43613)
# assay_text: FLIPR Ca2+ Flux Assay, orexin-1 receptor
# condition_description: CHO cells expressing the receptor; agonist 70 pM Ala-6,12 orexin-A
quantity: log10 of IC50 (log10 of the value in nM)

[[record]]
item_smiles = "COC(=O)c1cc(O[C@@H]2CC[C@@H](C)N(C(=O)c3ccccc3-n3nccn3)C2)ncc1Br"
reported_value = 1.46

[[record]]
item_smiles = "COC(=O)c1ccnc(O[C@@H]2CC[C@@H](C)N(C(=O)c3ccc(OC)nc3-c3ncccn3)C2)c1"
reported_value = 4.00

[[record]]
item_smiles = "COC(=O)c1cc(O[C@@H]2CC[C@@H](C)N(C(=O)c3ccccc3-n3nccn3)C2)ncc1C(F)(F)F"
reported_value = 1.45

[[record]]
item_smiles = "COC(=O)c1ccnc(O[C@@H]2CC[C@@H](C)N(C(=O)c3ccc(OC)nc3-n3nccn3)C2)c1"
reported_value = 4.00

[[record]]
item_smiles = "COC(=O)c1cc(O[C@@H]2CC[C@@H](C)N(C(=O)c3ccccc3-n3nccn3)C2)ncc1C"
reported_value = 1.49

[[record]]
item_smiles = "COC(=O)c1cc(C)nc(O[C@@H]2CC[C@@H](C)N(C(=O)c3ccccc3-n3nccn3)C2)c1"
reported_value = 3.17

[[record]]
item_smiles = "COC(=O)c1ccnc(O[C@@H]2CC[C@@H](C)N(C(=O)c3ccccc3-n3nccn3)C2)c1F"
reported_value = 3.23

[[record]]
item_smiles = "COC(=O)c1ccnc(O[C@@H]2CC[C@@H](C)N(C(=O)c3ccccc3-n3nccn3)C2)c1Cl"
reported_value = 2.98

[[record]]
item_smiles = "COC(=O)c1ccnc(O[C@@H]2CC[C@@H](C)N(C(=O)c3ccccc3-n3nccn3)C2)c1"
reported_value = 3.15

[[record]]
item_smiles = "COC(=O)c1ccnc(O[C@@H]2CC[C@@H](C)N(C(=O)c3ccccc3-n3nccn3)C2)c1C(=O)OC"
reported_value = 2.72


----------
# target_under_test: human orexin-2 receptor (Homo sapiens (Human), UniProt O43614)
# Sequence (O43614 whole entry): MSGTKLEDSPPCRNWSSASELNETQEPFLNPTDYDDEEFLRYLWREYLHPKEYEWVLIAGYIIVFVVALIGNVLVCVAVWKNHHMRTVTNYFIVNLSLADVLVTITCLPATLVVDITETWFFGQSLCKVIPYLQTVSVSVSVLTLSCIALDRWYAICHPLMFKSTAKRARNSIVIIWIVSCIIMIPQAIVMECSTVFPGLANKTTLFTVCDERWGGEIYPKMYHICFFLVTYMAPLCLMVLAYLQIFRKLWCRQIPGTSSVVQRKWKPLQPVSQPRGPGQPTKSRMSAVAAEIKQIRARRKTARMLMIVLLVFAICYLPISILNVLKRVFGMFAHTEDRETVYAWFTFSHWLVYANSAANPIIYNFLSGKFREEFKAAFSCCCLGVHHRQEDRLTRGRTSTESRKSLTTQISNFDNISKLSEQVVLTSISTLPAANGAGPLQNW
# assay_text: FLIPR Ca2+ Flux Assay, orexin-2 receptor
# condition_description: CHO cells expressing the receptor; agonist 70 pM Ala-6,12 orexin-A; read-out: hOX2R FLIPR IC50
pIC50: −log10 of the molar value.
quantity: pIC50

[[record]]
item_smiles = "COC(=O)c1ccnc(O[C@@H]2CC[C@@H](C)N(C(=O)c3ccccc3-n3nccn3)C2)c1"
quantity = "pIC50"
reported_value = 7.59

[[record]]
item_smiles = "COC(=O)c1cc(O[C@@H]2CC[C@@H](C)N(C(=O)c3ccccc3-n3nccn3)C2)ncc1OC"
quantity = "pIC50"
reported_value = 7.02

[[record]]
item_smiles = "COC(=O)c1ccnc(O[C@@H]2CC[C@@H](C)N(C(=O)c3ccccc3-n3nccn3)C2)c1Cl"
quantity = "pIC50"
reported_value = 7.96

[[record]]
item_smiles = "COC(=O)c1ccnc(O[C@@H]2CC[C@@H](C)N(C(=O)c3ccccc3-n3nccn3)C2)c1C(=O)OC"
quantity = "pIC50"
reported_value = 7.51

[[record]]
item_smiles = "COC(=O)c1cc(O[C@@H]2CC[C@@H](C)N(C(=O)c3ccccc3-n3nccn3)C2)ncc1C(F)(F)F"
quantity = "pIC50"
reported_value = 7.24

[[record]]
item_smiles = "COC(=O)c1cc(C)nc(O[C@@H]2CC[C@@H](C)N(C(=O)c3ccccc3-n3nccn3)C2)c1"
quantity = "pIC50"
reported_value = 7.08

[[record]]
item_smiles = "COC(=O)c1ccnc(O[C@@H]2CC[C@@H](C)N(C(=O)c3ccc(OC)nc3-c3ncccn3)C2)c1"
quantity = "pIC50"
reported_value = 5.68

